- test_details: self-splicing fitness, log relative to wild type (ln ratio); higher = more splicing; Tetrahymena group I intron in knt gene, E. coli kanamycin selection, DiMSum; sequences stand for … in CUCUCU…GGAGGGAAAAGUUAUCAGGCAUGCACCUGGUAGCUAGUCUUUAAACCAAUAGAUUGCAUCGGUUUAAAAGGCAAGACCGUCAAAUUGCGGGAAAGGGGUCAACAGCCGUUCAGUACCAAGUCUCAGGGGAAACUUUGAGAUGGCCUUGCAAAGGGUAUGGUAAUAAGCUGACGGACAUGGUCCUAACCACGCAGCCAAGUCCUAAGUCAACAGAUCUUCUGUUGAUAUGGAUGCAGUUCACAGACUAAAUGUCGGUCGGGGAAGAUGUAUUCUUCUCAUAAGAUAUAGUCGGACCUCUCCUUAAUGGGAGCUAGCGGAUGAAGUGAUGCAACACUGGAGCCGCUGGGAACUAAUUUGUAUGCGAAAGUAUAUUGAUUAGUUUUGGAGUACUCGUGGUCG;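 also: selection with 25 µg/mL kanamycin versus none on LB agar overnight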
- experimental_setup: 30 °C
true means recorded self-splicing fitness (ln) is -1 or above; false means it is below -1.

Please review the following examples before continuing.
{"residue_sequence": "UGGUAGCAAUAUUACGGGCG", "category_label": "true"}
{"residue_sequence": "UUUUAGCAAUAUUACGCUUA", "category_label": "false"}
{"residue_sequence": "UCAGAGCAAUAUUACGAUGA", "category_label": "true"}
{"residue_sequence": "CAUGAGCAAUAUUACGAGUG", "category_label": "false"}
{"residue_sequence": "GACAAGCAAUAUUACGUGUC", "category_label": "false"}

Moving on to the next sequence.
Would you say GAAGAGCAAUAUUACGCGUU shows self-splicing fitness (ln) at minimum -1? false
